# Target Under Test: T1, human OX40 protein (Acro biosystem, #OX0-H5224) (human, UniProt P43489 29-216)
# T1 construct: Bought recombinant protein
# T1 sequence (looked up): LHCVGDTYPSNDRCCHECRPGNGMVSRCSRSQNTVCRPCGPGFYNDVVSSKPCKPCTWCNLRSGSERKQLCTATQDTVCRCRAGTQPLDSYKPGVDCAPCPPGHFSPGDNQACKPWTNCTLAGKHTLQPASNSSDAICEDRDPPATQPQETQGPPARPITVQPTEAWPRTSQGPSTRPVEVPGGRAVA
# Experiment Summary: ELISA, coated human OX40 protein
Parameter: Maximum OD. Scope: all listed entries.

{"Binder": "PR002057 (antibody, human IgG1, V domains shown, no light chain; also called anti-OX40 HCAb antibody) VH: EVQLLESGGGLVQPGGSLRLSCAASGFIFSSYAMSWVRQAPGKGLEWVSAISGGGGSTFYADSVRGRFTISRDNSKNTLYLQMNSLRAEDTAVYYCADGMTGTTDVDYWGQGTLVTVSS", "Unit String": "OD", "Maximum OD": 1.76}
{"Binder": "PR002076 (antibody, human IgG1, V domains shown, no light chain; also called anti-OX40 HCAb antibody) VH: EVQLLESGGGLVQPGGSLRLSCAASGFTFSSYAMSWVRQAPGKGLEWVSAISGSGGNTYYADSVRGRFTISRDNSKNTLYLQMNSLRAEDTAVYYCANGMTGTTDVDYWGQGTRVTVSS", "Unit String": "OD", "Maximum OD": 2.8}
{"Binder": "PR002069 (antibody, human IgG1, V domains shown, no light chain; also called anti-OX40 HCAb antibody) VH: EVQLLESGGGLVQPGGSLRLSCAASGFTFSSYAMSWVRQAPGKGREWVSAISGGGGNTFYADSVRGRFTISRDNSKNTLYLQMNSLRAEDTAVYYCANGVTGTTDVDYWGQGTLVTVSS", "Unit String": "OD", "Maximum OD": 2.24}
{"Binder": "PR002062 (antibody, human IgG1, V domains shown, no light chain; also called anti-OX40 HCAb antibody) VH: EVQLLESGGGLVQPGGSLRLSCAASGFTFSSYAMSWVRQAPGKGQEWVSAISGSGGSTFYADSVRGRFTISRDNSKNTLYLQMSSLRAEDTAVYYCANGMTGTTDVDYWGQGTLVTVSS", "Unit String": "OD", "Maximum OD": 1.94}
